Source: patent US12539292B2

# tested on: BRM (Homo sapiens)
# Construct: In-Cell Western Screen of BRM Degradation in SW1573 Cells; endogenous in cells; host or cells: SW1573
# protocol summary: In-cell Western screen of BRM degradation in SW1573 cells (Dmax and DC50)
# Type: cell-based
# experimental parameters: BRM degradation, SW1573 cells; Table 2D; read-out: **Dmax (%) (% degraded)
# reported Dmax; entries follow

# molecule, Dmax
records = [
    ("COc1nc(-c2scnc2C)c(F)cc1[C@H](C)NC(=O)[C@@H]1C[C@@H](O)CN1C(=O)[C@@H](c1cc(OCCN2CCC(O[C@H]3C[C@H](Oc4cc(N5C6CCC5CN(c5cc(-c7ccccc7O)nnc5N)C6)ccn4)C3)CC2)no1)C(C)C [compound 562]", "> 75%"),
    ("Cc1nccn1-c1ccc([C@H](C)NC(=O)[C@@H]2C[C@@H](O)CN2C(=O)[C@@H](c2cc(N3CCC(O[C@H]4C[C@H](Oc5cc(N6C7CCC6CN(c6cc(-c8ccccc8O)nnc6N)C7)ccn5)C4)CC3)no2)C(C)C)cc1 [compound 601]", "> 75%"),
]

====

# tested on: BRM (Homo sapiens, UniProt P51531)
# Construct: In-Cell Western Screen of BRM Degradation in SW1573 Cells; endogenous in cells; host or cells: SW1573
# Sequence (P51531 whole entry): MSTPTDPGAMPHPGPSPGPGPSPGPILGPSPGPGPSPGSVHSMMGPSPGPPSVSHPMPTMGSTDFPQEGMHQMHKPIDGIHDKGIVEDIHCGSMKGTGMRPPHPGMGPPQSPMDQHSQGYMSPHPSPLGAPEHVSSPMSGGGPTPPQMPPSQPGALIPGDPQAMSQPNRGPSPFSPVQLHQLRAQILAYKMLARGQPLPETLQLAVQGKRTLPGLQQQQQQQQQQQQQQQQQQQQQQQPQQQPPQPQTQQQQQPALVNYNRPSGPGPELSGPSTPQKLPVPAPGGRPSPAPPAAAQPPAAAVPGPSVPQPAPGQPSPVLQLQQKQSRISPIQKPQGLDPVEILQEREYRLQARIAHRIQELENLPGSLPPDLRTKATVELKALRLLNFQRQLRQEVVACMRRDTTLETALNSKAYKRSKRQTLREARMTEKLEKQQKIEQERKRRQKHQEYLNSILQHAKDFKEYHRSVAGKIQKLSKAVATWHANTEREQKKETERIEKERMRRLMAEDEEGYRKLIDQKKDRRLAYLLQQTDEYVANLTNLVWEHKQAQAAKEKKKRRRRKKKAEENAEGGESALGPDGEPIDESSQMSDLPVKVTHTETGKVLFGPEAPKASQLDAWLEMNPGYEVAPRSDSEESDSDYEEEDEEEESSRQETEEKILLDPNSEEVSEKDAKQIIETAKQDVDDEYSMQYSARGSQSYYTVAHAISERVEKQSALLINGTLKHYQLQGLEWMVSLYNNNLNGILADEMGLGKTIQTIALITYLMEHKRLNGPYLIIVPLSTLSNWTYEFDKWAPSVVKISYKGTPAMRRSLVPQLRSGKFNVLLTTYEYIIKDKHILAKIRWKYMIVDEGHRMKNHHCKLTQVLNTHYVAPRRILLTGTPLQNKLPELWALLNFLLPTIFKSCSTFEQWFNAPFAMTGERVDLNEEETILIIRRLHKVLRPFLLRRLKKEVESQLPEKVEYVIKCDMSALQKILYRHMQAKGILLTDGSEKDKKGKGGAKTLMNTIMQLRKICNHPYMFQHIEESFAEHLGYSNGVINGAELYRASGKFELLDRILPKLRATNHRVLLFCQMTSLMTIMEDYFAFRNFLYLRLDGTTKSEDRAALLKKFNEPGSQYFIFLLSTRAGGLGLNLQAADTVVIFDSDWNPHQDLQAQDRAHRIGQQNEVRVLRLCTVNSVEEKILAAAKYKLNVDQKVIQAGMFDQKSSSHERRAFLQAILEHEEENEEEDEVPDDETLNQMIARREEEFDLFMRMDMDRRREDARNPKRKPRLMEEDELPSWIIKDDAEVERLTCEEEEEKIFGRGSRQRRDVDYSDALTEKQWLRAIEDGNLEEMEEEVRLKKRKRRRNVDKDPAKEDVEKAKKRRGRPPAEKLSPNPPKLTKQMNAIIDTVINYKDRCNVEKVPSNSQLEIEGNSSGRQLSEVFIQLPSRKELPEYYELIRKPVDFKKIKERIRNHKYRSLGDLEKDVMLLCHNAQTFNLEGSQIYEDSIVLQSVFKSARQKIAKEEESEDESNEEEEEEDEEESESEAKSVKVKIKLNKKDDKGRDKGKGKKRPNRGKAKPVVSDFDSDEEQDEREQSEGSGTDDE
# protocol summary: In-cell Western screen of BRM degradation in SW1573 cells (Dmax and DC50)
# Type: cell-based
# experimental parameters: BRM degradation; read-out: BRM DC50

# smiles record, DC50
measured = [
    ("Cc1ncsc1-c1ccc([C@H](C)NC(=O)[C@@H]2C[C@@H](O)CN2C(=O)[C@H](c2cc(OCCN3CCC(O[C@H]4C[C@H](Nc5cc(N6C7CCC6CN(c6cc(-c8ccccc8O)nnc6N)C7)ccn5)C4)CC3)no2)C(C)C)cc1", "> 30 nM"),
    ("Cc1cc([C@H](C(=O)N2C[C@H](O)C[C@H]2C(=O)N[C@@H](COCCCCCc2cc(-c3ccccc3O)nnc2N)c2ccc(-c3scnc3C)cc2)C(C)C)on1", "> 30 nM"),
    ("Cc1ncsc1-c1ccc([C@H](C)NC(=O)[C@@H]2C[C@@H](O)CN2C(=O)[C@@H](c2cc(OCCN(C(C)C)[C@H]3CC[C@H](O[C@H]4C[C@H](Oc5cc(N6C7CCC6CN(c6cc(-c8ccccc8O)nnc6N)C7)ccn5)C4)CC3)no2)C(C)C)cn1", "2.5 to 10 nM"),
    ("Cc1ncsc1-c1ccc([C@H](C)NC(=O)[C@@H]2C[C@@H](OP(=O)(O)O)CN2C(=O)[C@@H](c2cc(OCCN3CCC(O[C@H]4C[C@H](Oc5cc(N6C7CCC6CN(c6cc(-c8ccccc8OP(=O)(O)O)nnc6N)C7)ccn5)C4)CC3)no2)C(C)C)cc1", "< 2.5 nM"),
]

====

# tested on: BRM (Homo sapiens)
# Construct: In-Cell Western Screen of BRM Degradation in SW1573 Cells; endogenous in cells; host or cells: SW1573
# protocol summary: In-cell Western screen of BRM degradation in SW1573 cells (Dmax and DC50)
# Assay type: cell-based
# experimental parameters: BRM degradation, SW1573 cells; read-out: DC50
Measured DC50 by item

# molecule, DC50
records = [
    ("Cc1ncsc1-c1ccc([C@H](C)NC(=O)[C@@H]2C[C@@H](O)CN2C(=O)[C@@H](c2cc(OCCN3CCC(O[C@H]4C[C@H](C#CCn5cc(-c6cc(-c7ccccc7O)nnc6N)cn5)C4)CC3)no2)C(C)C)cc1 [compound 238]", "< 2.5 nM"),
    ("Cc1ncsc1-c1ccc([C@H](C)NC(=O)[C@@H]2C[C@@H](O)CN2C(=O)[C@@H](c2onc(OCCN3CCC(O[C@H]4C[C@H](Oc5cc(N6C7CCC6CN(c6cc(-c8ccccc8O)nnc6N)C7)ccn5)C4)CC3)c2Cl)C(C)C)cn1 [compound 223]", "2.5 to 10 nM"),
    ("COc1cc(C(C(=O)N2C[C@H](O)C[C@H]2C(=O)N[C@@H](C)c2ccc(-c3scnc3C)cc2)C(C)CC(=O)N(C)CCOc2cc(N3C4CCC3CN(c3cc(-c5ccccc5O)nnc3N)C4)ccn2)on1 (stereo partly drawn) [compound 289]", "> 30 nM"),
    ("Cc1ncsc1-c1ccc(CNC(=O)[C@@H]2C[C@@H](O)CN2C(=O)[C@@H](c2cc(CCCOCCOCCOCCOCCn3cc(-c4cc(-c5ccccc5O)nnc4N)cn3)no2)C(C)C)cc1 [compound 26]", "10 to 30 nM"),
    ("Cc1ncsc1-c1ccc([C@H](C)NC(=O)[C@@H]2C[C@@H](O)CN2C(=O)[C@H](c2cc(OCCN3CCN(Cc4ccc(C(C)n5cc(-c6cc(-c7ccccc7O)nnc6N)cn5)cc4)CC3)no2)C(C)C)cc1 (stereo partly drawn) [compound 166]", "2.5 to 10 nM"),
    ("Cc1ncsc1-c1ccc(CNC(=O)[C@@H]2C[C@@H](O)CN2C(=O)[C@H](c2cc(CCCOCCOCCOCCOCCn3cc(-c4cc(-c5ccccc5O)nnc4N)cn3)no2)C(C)C)cc1 [compound 25]", "> 30 nM"),
    ("Cc1ncsc1-c1ccc([C@H](C)NC(=O)[C@@H]2C[C@@H](O)CN2C(=O)[C@H](c2cc(N3CCC(O)(CN4CCC(O[C@H]5C[C@H](Oc6cc(N7C8CCC7CN(c7cc(-c9ccccc9O)nnc7N)C8)ccn6)C5)CC4)CC3)no2)C(C)C)cc1 [compound 641]", "> 30 nM"),
    ("Cc1ncsc1-c1ccc([C@H](C)NC(=O)[C@@H]2C[C@@H](O)CN2C(=O)[C@@H](c2cc(OCCC3CCN(C[C@H]4C[C@H](C#CC(C)n5cc(-c6cc(-c7ccccc7O)nnc6N)cn5)C4)CC3)no2)C(C)C)cc1 (stereo partly drawn) [compound 632]", "< 2.5 nM"),
    ("Cc1ncoc1-c1ccc([C@H](C)NC(=O)[C@@H]2C[C@@H](O)CN2C(=O)[C@H](c2cc(OCCN3CCC(O[C@H]4C[C@H](Oc5cc(N6C7CCC6CN(c6cc(-c8ccccc8O)nnc6N)C7)ccn5)C4)CC3)no2)C(C)C)cc1 [compound 212]", "> 30 nM"),
]
